For each entry below, report its logD value.
Experiment: Lipophilicity, log D of the compound
Assay type: physicochemical
Conditions: octanol/water
One number for each entry.

Here is how some compounds turned out for logD.
[[record]]
compound = "Cc1ccc(NC(=O)C[C@H](CCC(=O)[O-])c2noc(-c3csc(CC(C)C)n3)c2C2CC2)c(Cl)c1.[Na+]"
reported_metric = "logD"
measured = 3.8

[[record]]
compound = "Cc1ccc(NC(=O)CC(CCN)c2nnc(CCCC(C)C)n2C2CC2)c(C)c1 (racemic)"
reported_metric = "logD"
measured = 3.1

[[record]]
compound = "CNC(=O)CCC(CC(=O)Nc1ccc(C)cc1C)c1nnc(CCCC(C)C)n1C1CC1 (racemic)"
reported_metric = "logD"
measured = 3.5


For the next question, use this compound.
Query: If you can, please state the reported logD value of Cc1ccc(NC(=O)C[C@H](CCC(=O)[O-])c2noc(-c3cnc(CC(C)C)s3)c2C2CC2)c(Cl)c1.[Na+] .
Response: 3.8

###

Target: Peroxisome proliferator-activated receptor gamma (Homo sapiens, UniProt P37231)
Sequence (P37231 whole entry, the tested form may be a part): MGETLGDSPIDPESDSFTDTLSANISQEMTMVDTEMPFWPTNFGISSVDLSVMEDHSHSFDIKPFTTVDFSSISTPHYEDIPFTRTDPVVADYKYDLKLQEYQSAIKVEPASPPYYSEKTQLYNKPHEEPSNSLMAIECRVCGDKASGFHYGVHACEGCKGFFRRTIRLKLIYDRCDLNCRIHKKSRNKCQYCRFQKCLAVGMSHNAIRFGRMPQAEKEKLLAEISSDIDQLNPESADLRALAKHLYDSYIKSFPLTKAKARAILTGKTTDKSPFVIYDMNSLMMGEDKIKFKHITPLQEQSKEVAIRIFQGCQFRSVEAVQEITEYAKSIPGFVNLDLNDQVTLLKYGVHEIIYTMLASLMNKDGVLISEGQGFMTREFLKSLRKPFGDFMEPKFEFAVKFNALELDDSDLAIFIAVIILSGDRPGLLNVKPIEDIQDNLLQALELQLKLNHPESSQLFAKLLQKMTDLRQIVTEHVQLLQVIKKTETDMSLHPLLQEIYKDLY
Assay: Inhibition of GAL4-fused human PPARgamma transcriptional activity expressed in CHOK1 cells after 2 days by luciferase reporter gene assay
pEC50: −log10 of the molar value.
REPORTED_METRIC: pEC50

Query: Give pEC50 (Peroxisome proliferator-activated receptor gamma (Homo sapiens, UniProt P37231)) of the following compound: CC(C)(C)Cc1cc(-c2onc([C@@H](CCC(=O)[O-])CC(=O)Nc3ccc(Cl)cc3Cl)c2C2CC2)no1.[Na+]
Response: < 4.70

###

Exercise: for every item that follows, state its recorded Papp.
Experiment: Apparent permeability in human Caco2 cells
Format: ADME, cell-based
Conditions: Caco-2
One number for each entry, in ×10⁻⁶ cm/s.

Use the examples below as a reference point.
[[record]]
molecule = "Cc1ccc(NC(=O)C[C@H](CCC(=O)[O-])c2noc(-c3noc(CC(C)C)n3)c2C2CC2)c(Cl)c1.[Na+]"
reported_metric = "Papp"
measured = 25

[[record]]
molecule = "Cc1ccc(NC(=O)C[C@H](CCC(=O)O)c2noc(-c3ccc(CC(C)C)cc3)c2C2CC2)c(Cl)c1"
reported_metric = "Papp"
measured = 16

[[record]]
molecule = "Cc1ccc(NC(=O)C[C@H](CCC(=O)[O-])c2noc(-c3nnc(CC(C)C)s3)c2C2CC2)c(Cl)c1.[Na+]"
reported_metric = "Papp"
measured = 10

[[record]]
molecule = "CC(=O)N1C[C@H](C(=O)Nc2ccc(C)cc2C)[C@@H](c2nnc([C@H]3C[C@@H](CC(C)C)C3)n2C2CC2)C1"
reported_metric = "Papp"
measured = 20

[[record]]
molecule = "Cc1ccc(NC(=O)CC(CCN(C)C)c2nnc(CCCC(C)C)n2C2CC2)c(C)c1 (racemic)"
reported_metric = "Papp"
measured = 0.8

[[record]]
molecule = "Cc1ccc(NC(=O)CC(CCC(=O)O)c2nnc(CCCC(C)C)n2C2CC2)c(C)c1 (racemic)"
reported_metric = "Papp"
measured = 0.2

[[record]]
molecule = "Cc1ccc(NC(=O)C[C@H](CCC(=O)[O-])c2noc(-c3cc(CC(C)C)no3)c2C2CC2)c(Cl)c1.[Na+]"
reported_metric = "Papp"
measured = 28


We now examine a further molecule.
Query: May I ask what Papp has been recorded for Cc1ccc(NC(=O)CC(CCC(N)=O)c2nnc(CCCC(C)C)n2C2CC2)c(C)c1 (racemic) ?
Response: 0.8

###

Molecular target: UniProt:P05177
Sequence (P05177 whole entry): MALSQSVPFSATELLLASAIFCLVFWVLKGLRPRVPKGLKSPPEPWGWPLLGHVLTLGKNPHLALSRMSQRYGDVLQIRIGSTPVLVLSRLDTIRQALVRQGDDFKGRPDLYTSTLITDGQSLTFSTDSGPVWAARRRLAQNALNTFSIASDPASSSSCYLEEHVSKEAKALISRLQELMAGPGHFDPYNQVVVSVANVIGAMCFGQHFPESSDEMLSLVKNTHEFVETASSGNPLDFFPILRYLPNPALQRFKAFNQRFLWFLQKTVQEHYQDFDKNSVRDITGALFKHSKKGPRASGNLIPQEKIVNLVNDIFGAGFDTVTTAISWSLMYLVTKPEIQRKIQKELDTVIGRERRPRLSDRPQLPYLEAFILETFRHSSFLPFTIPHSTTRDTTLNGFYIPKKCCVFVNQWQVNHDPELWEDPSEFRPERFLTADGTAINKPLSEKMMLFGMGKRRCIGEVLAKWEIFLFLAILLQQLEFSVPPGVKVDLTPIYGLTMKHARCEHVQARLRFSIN
Experiment: Time-dependent inhibition of human CYP1A2
REPORTED_METRIC: IC50

Query: IC50; subject: CC(C)(C)Cc1cc(-c2onc([C@@H](CCC(=O)[O-])CC(=O)Nc3ccc(Cl)cc3Cl)c2C2CC2)no1.[Na+]
Response: > 50 µM

###

Molecular target: Nuclear receptor ROR-alpha (Homo sapiens, UniProt P35398)
Sequence (P35398 whole entry, the tested form may be a part): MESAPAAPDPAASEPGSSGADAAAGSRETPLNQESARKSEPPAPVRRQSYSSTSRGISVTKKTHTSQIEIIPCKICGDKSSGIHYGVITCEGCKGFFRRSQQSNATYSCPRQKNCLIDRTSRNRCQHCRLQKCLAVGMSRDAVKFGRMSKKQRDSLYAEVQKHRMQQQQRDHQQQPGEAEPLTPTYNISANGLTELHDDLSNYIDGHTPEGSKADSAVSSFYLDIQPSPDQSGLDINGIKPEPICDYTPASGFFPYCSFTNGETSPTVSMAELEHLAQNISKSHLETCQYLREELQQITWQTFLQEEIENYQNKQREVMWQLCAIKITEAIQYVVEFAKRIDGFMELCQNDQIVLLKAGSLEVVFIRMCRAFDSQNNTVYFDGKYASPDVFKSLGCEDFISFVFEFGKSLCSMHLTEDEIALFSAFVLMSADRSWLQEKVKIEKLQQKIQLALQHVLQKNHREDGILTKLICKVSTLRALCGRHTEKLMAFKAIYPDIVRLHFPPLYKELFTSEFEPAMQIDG
Test: Inhibition of GAL4-fused human RORalpha transcriptional activity expressed in CHOK1 cells after 2 days by luciferase reporter gene assay
pEC50: −log10 of the molar value.
REPORTED_METRIC: pEC50

Query: Need pEC50, item CC(C)(C)Cc1cc(-c2onc([C@@H](CCC(=O)[O-])CC(=O)Nc3ccc(Cl)cc3Cl)c2C2CC2)no1.[Na+]
Response: < 4.70

###

Assay: Lipophilicity, log D of the compound
Format: physicochemical
Settings: octanol/water
REPORTED_METRIC: logD
Numbers only.

[[record]]
smiles_repr = "Cc1ccc(NC(=O)C[C@H](CCC(=O)[O-])c2noc(-c3nnc(CC(C)C)s3)c2C2CC2)c(Cl)c1.[Na+]"
reported_metric = "logD"
measured = 3.4

[[record]]
smiles_repr = "Cc1ccc(NC(=O)C[C@H](CCC(=O)O)c2noc(-c3cc(C(F)(F)CC(C)C)on3)c2C2CC2)c(Cl)c1"
reported_metric = "logD"
measured = 4.4

[[record]]
smiles_repr = "CC(C)(C)C(F)(F)c1cc(-c2onc([C@@H](CCC(=O)O)CC(=O)Nc3ccc(F)cc3Cl)c2C2CC2)no1"
reported_metric = "logD"
measured = 4


Next item in the queue.
Query: Which logD is reported for this compound? Cc1ccc(NC(=O)C[C@H](CCC(=O)[O-])c2noc(-c3noc(CC(C)C)n3)c2C2CC2)c(Cl)c1.[Na+]
Response: 3.6

###

Test: Lipophilicity, log D of the compound
Type: physicochemical
Conditions: octanol/water
Please respond with MET when measured logD is strictly beneath 4, and with NOT MET in all other cases.

See these solved cases before continuing.
[[record]]
compound = "Cc1ccc(NC(=O)C[C@H](CCC(=O)O)c2noc(-c3cc(C(F)(F)C(C)(C)C)on3)c2C2CC2)c(Cl)c1"
answer_label = "NOT MET"

[[record]]
compound = "Cc1ccc(NC(=O)C[C@H](CCC(=O)[O-])c2noc(-c3cc(CC(C)C)no3)c2C2CC2)c(Cl)c1.[Na+]"
answer_label = "MET"

[[record]]
compound = "Cc1ccc(NC(=O)CC(CCC(=O)O)c2nnc(CCCC(C)C)n2C2CC2)c(C)c1 (racemic)"
answer_label = "MET"

[[record]]
compound = "CC(C)(C)Cc1cc(-c2onc([C@@H](CCC(=O)[O-])CC(=O)Nc3ccc(Cl)cc3Cl)c2C2CC2)no1.[Na+]"
answer_label = "NOT MET"


Query: Please check: logD for Cc1ccc(NC(=O)CC(CCN(C)C)c2nnc(CCCC(C)C)n2C2CC2)c(C)c1 (racemic) , strictly under 4 or not?
Response: MET

Query: # check: logD < 4 for Cc1ccc(NC(=O)C[C@H](CCC(=O)O)c2noc(-c3ccc(CC(C)C)cc3)c2C2CC2)c(Cl)c1
Response: NOT MET

Query: In the record for CC(=O)NCCC(CC(=O)Nc1ccc(C)cc1C)c1nnc(CCCC(C)C)n1C1CC1 (racemic) , is logD less than 4?
Response: MET

###

Target: Cytochrome P450 2D6 (Homo sapiens)
Sequence (P10635 whole entry): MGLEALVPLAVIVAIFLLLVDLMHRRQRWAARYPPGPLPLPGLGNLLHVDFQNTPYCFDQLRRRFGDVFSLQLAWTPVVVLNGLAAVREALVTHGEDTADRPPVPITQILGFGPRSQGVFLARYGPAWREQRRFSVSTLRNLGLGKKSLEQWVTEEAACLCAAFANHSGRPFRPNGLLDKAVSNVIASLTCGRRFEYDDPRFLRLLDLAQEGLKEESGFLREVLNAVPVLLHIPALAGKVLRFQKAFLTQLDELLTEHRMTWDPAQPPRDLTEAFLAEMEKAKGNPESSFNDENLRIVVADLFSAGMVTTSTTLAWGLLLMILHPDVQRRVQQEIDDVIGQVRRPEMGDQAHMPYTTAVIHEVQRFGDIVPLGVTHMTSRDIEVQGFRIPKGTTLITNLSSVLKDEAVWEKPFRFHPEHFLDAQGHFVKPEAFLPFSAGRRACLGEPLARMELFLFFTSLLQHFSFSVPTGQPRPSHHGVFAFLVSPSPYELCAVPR
Experiment: Time-dependent inhibition of human CYP2D6
REPORTED_METRIC: IC50

Query: Which IC50 is reported for this compound? CC(C)(C)Cc1cc(-c2onc([C@@H](CCC(=O)[O-])CC(=O)Nc3ccc(Cl)cc3Cl)c2C2CC2)no1.[Na+]
Response: > 50 µM

###

Target: Cytochrome P450 2C9 (Homo sapiens)
Sequence (P11712 whole entry): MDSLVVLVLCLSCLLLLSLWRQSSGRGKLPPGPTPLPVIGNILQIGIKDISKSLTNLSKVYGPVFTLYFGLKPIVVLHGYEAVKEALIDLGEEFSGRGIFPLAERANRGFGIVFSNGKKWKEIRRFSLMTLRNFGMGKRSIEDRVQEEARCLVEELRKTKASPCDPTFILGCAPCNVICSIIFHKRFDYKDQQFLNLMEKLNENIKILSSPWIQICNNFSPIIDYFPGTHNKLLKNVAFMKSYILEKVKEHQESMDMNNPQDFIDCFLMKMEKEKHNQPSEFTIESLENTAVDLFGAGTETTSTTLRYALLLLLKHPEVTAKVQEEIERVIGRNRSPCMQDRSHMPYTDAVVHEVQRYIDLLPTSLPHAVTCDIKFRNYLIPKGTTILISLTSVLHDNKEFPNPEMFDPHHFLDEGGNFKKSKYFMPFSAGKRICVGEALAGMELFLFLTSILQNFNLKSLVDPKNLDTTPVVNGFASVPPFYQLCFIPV
Assay: Time-dependent inhibition of human CYP2C9
REPORTED_METRIC: IC50

Query: Find the recorded IC50 belonging to CC(C)(C)Cc1cc(-c2onc([C@@H](CCC(=O)[O-])CC(=O)Nc3ccc(Cl)cc3Cl)c2C2CC2)no1.[Na+] and report it.
Response: > 50 µM

###

Assay: Apparent permeability in human Caco2 cells
Format: ADME, cell-based
Settings: Caco-2
REPORTED_METRIC: Papp
Kindly format the answer as number then unit.

Some solved cases for reference:
[[record]]
compound = "Cc1ccc(NC(=O)C[C@H](CCC(=O)[O-])c2noc(-c3ncc(CC(C)C)o3)c2C2CC2)c(Cl)c1.[Na+]"
measured = "32 ×10⁻⁶ cm/s"

[[record]]
compound = "Cc1ccc(NC(=O)C[C@H](CCC(=O)[O-])c2noc(-c3ncc(CC(C)C)s3)c2C2CC2)c(Cl)c1.[Na+]"
measured = "28 ×10⁻⁶ cm/s"


Now take the following compound into account.
Query: For Cc1ccc(NC(=O)CC(CCN)c2nnc(CCCC(C)C)n2C2CC2)c(C)c1 (racemic) , what is its reported Papp?
Response: 0.2 ×10⁻⁶ cm/s
